Measured values drawn from a melting point compilation (Tetko et al.; mined from patent text by program, amines drawn as free bases though some values may be those of a salt) for this set.

This section presents compounds with their documented melting point values.

> print(dat)
                                   compound    test.result
1   O=C(NCc1ccc(Cl)cc1)c1cnc2sc(CCCO)cc2c1O  185 to 186 °C
2  CCOC(=O)c1c(C2CC2)nc(CC)n1Cc1ccc2oc(-c3ccccc3-c3nnn[nH]3)c(Br)c2c1  132 to 137 °C
3           Cc1cc(O)n2ncc([N+](=O)[O-])c2n1         290 °C
4  COCOc1c(Br)cccc1-c1ccc2c(c1)C(C)(C)CCC2(C)C          74 °C
5  O=C(c1nc2ccc(O)cc2[nH]1)N1CCC(Cc2ccccc2)CC1         186 °C
6                 Cc1oc2ccccc2c1OC(C)(C)C#N    53 to 55 °C
7       COc1cc2c(=O)c(-c3ccc(O)cc3)coc2cc1O  336 to 338 °C
8  CC(C)(C)OC(=O)N[C@@H](CCC(=O)c1ccccc1)C(=O)OC(C)(C)C          85 °C

-- ask State the recorded melting point for this entry: O=S(=O)(Nc1cccc(OCc2ncc3ccccc3n2)c1)C(F)(F)F
-- reply 140 to 150 °C

-- ask Quick check: melting point of COC(=O)C(Cc1cccc(C2(OC)CCOCC2)c1)c1nc(-c2ccccc2)c(-c2ccc(S(N)(=O)=O)cc2)o1 (stereo unspecified) ?
-- reply 88.7 to 94.9 °C

-- ask Requested field: melting point. Item: CC(=O)NC[C@H]1CN(c2ccc(I)c(F)c2)C(=O)O1
-- reply 186 °C

-- ask I'd like to know its melting point. The compound in question is COC(=O)C(=O)CC(=O)c1ccc(Cl)cc1
-- reply 108 to 110 °C

-- ask Could you tell me which melting point is on file for COc1ccc2c(c1)C=C(/C=C/C=C/C=C/C(=O)O)CO2 ?
-- reply 250 to 252 °C

-- ask For the compound shown here, COc1ccc2c(c1)C(=O)C(C)(C)C(=O)N2 , give the reported melting point.
-- reply 169 to 170 °C

-- ask I'd like to know its melting point. The compound in question is N#CC(Cn1ccnc1)(c1ccccc1)c1ccccn1 (stereo unspecified)
-- reply 83 to 85 °C

-- ask Name the reported melting point value associated with the compound Cc1cc(COP(N)(=O)N(CCCl)CCCl)ccc1[N+](=O)[O-] (stereo unspecified)
-- reply 64 to 66 °C

----------
Each item that follows carries a reported melting point.

> print(dat)
                                   compound    test.result
1    COc1ccc(C=C2Cc3c(C)cc(C)c(O)c3C2=O)cc1  192 to 193 °C
2  O=Cc1cccc(NC(=O)NC2N=C(c3ccccc3F)c3ccccc3N(CC(=O)N3CC4CCC(CC4)C3)C2=O)c1 (racemic)  164 to 182 °C
3  COCc1ccc(C)c(NC(=O)CC23CC4CC(CC(C4)C2)C3)c1  127 to 128 °C
4  Cn1nc(O[C@@H]2c3cc(C(F)(F)C(F)(F)F)ccc3OC(CF)(CF)[C@H]2O)ccc1=O (relative stereo)  189 to 191 °C
5                             OCCCc1ccncc1O  123 to 126 °C

-- ask Query (compound): CC(C)(C)OC(=O)CN1CCN(c2ccnc(-c3nc(=O)c4ccccc4s3)c2)C1=O ; field requested: melting point
-- reply 192 to 194 °C

-- ask Form field: reported melting point of Cc1ccc(-c2ccccc2C(=O)Nc2ccc(C(=O)N3C[C@@H]4C[C@@H](O)CN4c4ccccc43)cc2)cc1
-- reply 163 to 164 °C

-- ask Reported melting point for Cc1cc(C)c(OP(Oc2c(C)cc(C)cc2C)Oc2c(C)cc(C)cc2C)c(C)c1 : what is it?
-- reply 92 to 95 °C

-- ask Please report the recorded melting point for CC(CC(=O)O)C(=O)NC1(C(=O)O)CCCC1 (centres undefined) .
-- reply 169 to 170 °C

-- ask Item under review: CCC(=O)n1nc(-c2cc(C(C)(C)C)c(O)c(C(C)(C)C)c2)c2cccnc21 . Reported melting point?
-- reply 184 to 185 °C

-- ask What value of melting point has been reported for the following compound? Cc1cc(C)c(C2Cc3cc(NC(=O)CC(C)(C)C)cc(Cc4ccc(C(C)C)cc4)c3O2)cc1CO (centres undefined)
-- reply 136 to 137 °C

-- ask What value of melting point has been reported for the following compound? CC12C=CC(=O)CC1CCC1C2CCC2(C)C1CCC2(C)O (centres undefined)
-- reply 140 to 142 °C

-- ask May I ask what melting point has been recorded for CCOc1nc2ccnn2c2ncccc12 ?
-- reply 162 °C

-- ask # query: melting point of entry N#Cc1ccc(C=O)c(-c2ccco2)c1
-- reply 125 °C

-- ask Quick one: melting point of Cc1nc2c(Br)cccc2c(=O)n1C1CCC(=O)NC1=O (centres undefined) ?
-- reply 307 to 309 °C

-- ask Requested field: melting point. Item: CCCc1ccc2c(=O)cc(C(=O)O)[nH]c2c1
-- reply > 240 °C

-- ask Return reported melting point; argument: CCOC(=O)NC(=S)NC(C)C
-- reply 52.5 to 54 °C

-- ask melting point for O=C(NC1CC1)c1cc([N+](=O)[O-])[nH]n1 ?
-- reply 206 °C

-- ask Using the record for Cc1ccc(C(=O)Nc2ccccc2O)c(F)c1 , report its melting point.
-- reply 195 to 197 °C

-- ask # input compound: CCCOC(=O)C=Nc1cc(Cl)ccc1C(=O)O ; wanted: its melting point
-- reply 155 °C

-- ask Fill blank: measured melting point of the compound COc1ccc(C(=O)Sc2ccc(C(=O)O)cc2)cc1C1(C)CCCCC1 is ____.
-- reply 216 to 218 °C

-- ask // query melting point value for entry CCC(C)(Cc1c[nH]c2ccccc12)NC=O (centres undefined)
-- reply 122 to 124 °C

-- ask Item CC(=O)O[C@@H]1[C@H](OC(C)=O)[C@@H](C)O[C@H]1n1c(Br)nc2c(Br)c(Cl)c(Cl)cc21 has what recorded melting point?
-- reply 152 to 154 °C

-- ask GET /values?readout=melting point&item= CCc1cccc(CC(=O)O)c1OCCCc1cn(-c2ccc(C(F)(F)F)cn2)nc1C(CC)CC
-- reply 130 to 131 °C

-- ask I have this compound here, C#CC(C)(C)OC(=O)Nc1ccc(-c2ncn(-c3ccc(OC(F)(F)F)cc3)n2)cc1 , and I need its recorded melting point.
-- reply 164 to 165 °C

-- ask Fill blank: measured melting point of the compound CC(=O)Nc1ccc(Br)c(C)n1 is ____.
-- reply 156 to 157 °C

-- ask Recorded melting point for CN1CCN(c2cccc3ccc(NC(=O)c4ccc(Cl)cc4)cc23)CC1 , please?
-- reply 174 to 175 °C

-- ask Look at this compound and give its reported melting point. CN(C)S(=O)(=O)Oc1cc(-n2c(=O)cc(C(F)(F)F)n(C)c2=O)c(F)cc1Cl
-- reply 118 to 120 °C

-- ask Query (compound): N#Cc1c(C(N)=O)c2n(c1C1CC1)CCN(C(=O)Nc1ccc(C(=O)O)cc1)C2 ; field requested: melting point
-- reply 279 to 280 °C
